PROTOCOL: small-molecule binders of probe aInhba, primary screen, biochemical, small-molecule microarray, 635/667 nm fluorescence (AID 1148);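 also: score merges 667nm spot fluorescence with signal-to-noise for antibody binding to printed compounds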
TEST_SETTINGS: higher = more signal
Class field: derived from composite z-score; ranges 0 = under -0.04, 1 = from -0.04 up to 0.1, 2 = 0.1 and over

Solved cases below.
COMPOUND | ASSIGNED_CATEGORY
O=C1O[C@@H](c2ccccc2)[C@@H](c2ccccc2)N2[C@@H](c3ccc(OCCO)cc3)[C@]3(C(=O)Nc4ccc(C#CC5=CCCCC5)cc43)[C@@H](C(=O)Nc3nc4ccccc4s3)[C@H]12 | 0
C=C(C(=O)CC[C@H](OC(=O)c1ccccc1-c1ccccc1C(=O)O)c1ccc(OCCO)cc1)C(C)C | 1

Lab note: sort O=C1O[C@H](c2ccccc2)[C@H](c2ccccc2)N2[C@H]1[C@@H](C(=O)N1CCN(c3ncccn3)CC1)[C@]1(C(=O)Nc3ccc(C#CC4(O)CCCCCC4)cc31)[C@H]2c1ccc(O)cc1 into the matching composite z-score band.
1

Moving on to the next compound: O=C1C2C=CC(C(O)c3ccccn3)N(Nc3ccc([N+](=O)[O-])cc3)C2C(=O)N1c1ccccc1 (stereo not given)
1

Moving on to the next compound: CCc1cccc(NC(=O)O[C@H]2[C@H](OC(=O)Nc3ccccc3-c3ccccc3)[C@H](OC(=O)Nc3ccccc3-c3ccccc3)[C@@H](OC)O[C@@H]2CO)c1
1

Moving on to the next compound: O=C(NC1CC1)[C@@H]1c2ccccc2C(=O)N(C2CCCCC2)[C@H]1c1ccc(CO)cc1
0

Moving on to the next compound: COc1ccc(C(O)C2C=CC3C(=O)N(C)C(=O)C3N2Nc2ccccc2)cc1 (stereo not given)
2

Moving on to the next compound: C=CCN1C(=O)[C@]2(O[C@H](CCO)[C@@H]([Si](C)(C)c3ccc(OC)cc3)[C@@H]2C)c2cc(N3C(=O)c4ccccc4Oc4ccccc43)ccc21
0

Moving on to the next compound: C=C(CCCC)/C(=C/C[C@@H](OC(C)=O)c1cccc(OCCO)c1)c1cc(C(=O)OC)ccc1OC
0

Moving on to the next compound: Cc1ccc(S[C@]2(C(=O)NCc3ccccc3)CC(=O)N(Cc3ccccc3C(F)(F)F)[C@@H]2c2ccc(CO)cc2I)cc1
2

Moving on to the next compound: COc1ccc([Si](C)(C)[C@H]2[C@H](CC(=O)N3CCC[C@H]3CO)O[C@@]3(C(=O)N(C)c4c(Br)cc(C)cc43)[C@@H]2C)cc1
2

Moving on to the next compound: COC(=O)[C@@]1(Cc2ccc(F)cc2)[C@H]2c3cc(C(=O)N(C)C)n(CCF)c3C[C@H]2CN1C(=O)c1ccccc1
2

Moving on to the next compound: C=C[C@@H](CO)NS(=O)(=O)c1ccc(Br)cc1
0

Moving on to the next compound: C=CC[C@]1(C(=O)NCC(O)CO)N=C(c2ccc(OCCCO)cc2)O[C@H]1c1ccccc1CN=[N+]=[N-] (stereo not given in full)
2

Moving on to the next compound: O=C1C[C@@](C(=O)NCC(F)(F)F)(c2ccc([N+](=O)[O-])cc2)[C@@H](c2ccc(CO)cc2I)N1CC12CC3CC(CC(C3)C1)C2
1

###

Reported composite z-score by item:
TESTED_SYSTEM: Calmodulin-1 (Homo sapiens) (UniProt P0DP23)
PROTOCOL: calcium-bound CALM1 binders on microarrays, profiling panel, artefact control for SMM control-protein annotation, biochemical, small-molecule microarray, Cy5-labelled CALM1, plus calcium (AID 1112);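 also: score merges spot fluorescence with signal to noise from triplicate slides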
TEST_SETTINGS: Cy5-CALM1 binding fluorescence, higher = more signal
Output: the number by itself.

INPUT_SMILES | TESTED_SYSTEM | composite z-score
NCCCCCCNC(=O)[C@@H]1C[C@@H]2C(=O)NCC(=O)N2[C@@H]1c1cccc(OCCO)c1 | Calmodulin-1 (Homo sapiens) (UniProt P0DP23) | 0.293
Cc1cccc([C@H]2C[C@H]3C(Br)=C[C@@]2(CO)C(=O)[C@]32CO2)c1 | Calmodulin-1 (Homo sapiens) (UniProt P0DP23) | -0.0921
COCCCNC(=O)[C@@]1(Cc2ccccc2I)c2ccccc2C(=O)N(Cc2ccccc2OC)[C@H]1c1ccc(CO)cc1 | Calmodulin-1 (Homo sapiens) (UniProt P0DP23) | 0.0879

# context switch: different compound, same composite z-score
composite z-score for O=C(NCCN1CCOCC1)[C@@H]1c2ccccc2C(=O)N(CC23CC4CC(CC(C4)C2)C3)[C@H]1c1ccc(CO)cc1 ?
-0.236

###

PROTOCOL: osmotic lysis modulators in infected erythrocytes, primary screen, PSAC antagonist project, cell-based, P. falciparum Indochina, OD700, 3 h (AID 1156)
TEST_SETTINGS: higher = more signal, called active from +8 up or from −8 down
MEASURED_PARAMETER: z-score
Output: the number by itself.

Illustrative cases are given below, each with its answer.
COMPOUND | z-score
C[C@]1(C(=O)NCC(F)(F)F)c2ccccc2C(=O)N(Cc2cc(C(F)(F)F)cc(C(F)(F)F)c2)[C@H]1c1ccc(CO)cc1 | -0.29
CCOC(=O)C[C@H]1[C@H](OC(=O)Cc2ccc3c(c2)OCO3)[C@@H](NC(=O)CC(C)C)c2cc(OCCCO)ccc2N1C(=O)c1ccc2ccccc2n1 | -0.161
CCCCCCCCCCC(O)C1C=CC2C(=O)N(C)C(=O)C2N1Nc1ccccc1 (configuration not stated) | 0.156

z-score for CCOC(=O)C[C@H]1[C@H](OC(=O)c2ccc(-c3ccccc3)cc2)[C@@H](NC(=O)c2ccc(-c3ccccc3)cc2)c2cc(OCCCO)ccc2N1C(=O)c1ccccc1 ?
-0.392

Moving on to the next compound: O=C1OCC=C[C@H]2OC34C=CCN(Cn5nnc6ccccc65)C(=O)[C@H]3N(CCO)C(=O)[C@@H]4[C@@H]12 (some centres not stated)
0.268

Moving on to the next compound: CCOC(=O)C[C@H]1[C@H](OC(=O)c2ccc(-c3ccccc3)cc2)[C@@H](NC(=O)C2CCCCC2)c2cc(OCCCO)ccc2N1C(=O)Cc1ccc(OC)cc1
-0.816

Moving on to the next compound: CCCC[C@@H](O)C1=C(C)Cn2c(=O)n(-c3ccccc3)c(=O)n2[C@H]1CO
-0.0398

###

Reported z-score by item:
PROTOCOL: basal HepG2 mitochondrial membrane potential changes, profiling panel, cell-based, JC-1 fluorescence, 24 h, 100 nL compound (AID 1167); also: test concentration not given here
TEST_SETTINGS: higher = more signal
Output: the number by itself.

COMPOUND | z-score
COc1ccc([Si](C)(C)[C@H]2[C@H](CC(=O)N3CCC[C@H]3CO)O[C@@]3(C(=O)N(C)c4ccccc43)[C@@H]2C)cc1 | -1.03
CCOC(=O)C1=C[C@@H](C(C)(C)C)N(S(=O)(=O)c2ccc(C)cc2)[C@H]1c1ccc(OC)cc1 | 4.09
C=CC[C@H](O)c1ccc(O)c2ccccc12 | -2.13

z-score for COC(=O)[C@]1(Cc2ccccc2CN=[N+]=[N-])N=C(c2ccc(OCCCO)cc2)O[C@@H]1c1ccccc1N=[N+]=[N-] ?
1.52

Moving on to the next compound: C=C(C(=O)CC[C@@H](OC(=O)c1ccccc1-c1ccccc1C(=O)O)c1ccc(CO)o1)C(C)C
-1.54

Moving on to the next compound: CCc1cccc(NC(=O)O[C@H]2[C@H](OC(=O)Nc3ccccc3-c3ccccc3)[C@H](OC(=O)Nc3ccccc3-c3ccccc3)[C@@H](OC)O[C@@H]2CO)c1
-0.812

Moving on to the next compound: CC(C)C[C@@H]1NC(=O)[C@H]2C[C@@H](C(=O)O)[C@@H](c3cccc(OCCO)c3)N2C1=O
0.664

###

PROTOCOL: adipocyte viability effects, profiling panel, cell-based, 3T3-L1 adipocytes, calcein-AM fluorescence, 48 h, basal (AID 1163); also: test concentration not given here
TEST_SETTINGS: 3T3-L1 adipocytes viability, higher = more signal
MEASURED_PARAMETER: z-score
Output: the number by itself.

Illustrative cases are given below, each with its answer.
MOLECULE | z-score
C=CCOC(=O)[C@H]1[C@@H]2C(=O)O[C@@H](c3ccccc3)[C@@H](c3ccccc3)N2[C@@H](c2ccc(OCCOC(=O)[C@H]3C[C@H]4C(=O)NCC(=O)N4[C@H]3c3ccc(O)cc3)cc2)[C@]12C(=O)Nc1ccccc12 | 0.645
N#Cc1ccc(NN2C(C(O)c3ccc(B(O)O)cc3)C=CC3CN(c4ccccc4)C(=O)C32)cc1 (centres undefined) | -0.463
COc1ccc(CCNC(=O)[C@@H]2c3ccccc3C(=O)N(Cc3cc(F)cc(C(F)(F)F)c3)[C@H]2c2ccc(CO)cc2)cc1 | 1.33
CCOC(=O)C1=C[C@@H](C(C)(C)C)N(S(=O)(=O)c2ccc(C)cc2)[C@H]1c1ccc(OC)cc1 | -0.276
C=CCNC(=O)[C@H]1[C@@H]2C(=O)O[C@@H](c3ccccc3)[C@@H](c3ccccc3)N2[C@@H](c2ccc(OCCO)cc2)[C@]12C(=O)N(C(=O)OCCOC)c1ccc(C#CCNC(N)=O)cc12 | -0.585
Cc1ccc(S[C@]2(C(=O)NCCN3CCOCC3)CC(=O)N(C(C)C)[C@@H]2c2ccc(CO)cc2I)cc1 | 0.557
CC(C)c1ccc(NN2C(C(O)C(C)c3ccccc3)C=CC3C(=O)N(c4ccccc4)C(=O)C32)cc1 (centres undefined) | -0.856
CC(C)(C)OC(=O)CC[C@@]1(C(N)=O)N=C(c2ccc(OCCCO)cc2)O[C@@H]1c1ccccc1CN=[N+]=[N-] | -0.288
COC(=O)[C@@]1(Cc2ccc(OC)cc2)[C@@H]2[C@@H](CC(=O)[C@H]2CC(=O)C(=O)N(C)C)CN1C(=O)c1ccccc1 | -0.18
COCCOC(=O)N1C(=O)[C@@]2(c3cc(C#CCCO)ccc31)[C@H](C(=O)N1CCN(c3ncccn3)CC1)[C@H]1C(=O)O[C@H](c3ccccc3)[C@H](c3ccccc3)N1[C@@H]2c1ccc(OCCO)cc1 | 0.474

# context switch: different molecule, same z-score
z-score for COC(=O)[C@@]1(Cc2ccc(F)cc2)[C@H]2c3cc(C(=O)N4CCCC4)n(CCSCCO)c3C[C@H]2CN1C(=O)c1ccccc1 ?
0.75
